Target: T1, human BCMA with a His tag (ACROBiosystems, Catalog No.: BCA-H522y) (human)
T1 construct: Bought His-tagged recombinant protein; also called huBCMA-His; Recombinant human BCMA
T1 chain: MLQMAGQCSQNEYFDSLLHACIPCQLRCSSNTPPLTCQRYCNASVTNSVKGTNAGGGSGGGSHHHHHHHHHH
Assay: SPR, Biacore T200
reported_property: Kd (nM)
# unit: nM | format: bare number

Query :: Quick one: give measured Kd for SCT-Aa10(h/h) (antibody, V domains shown, Full IgG format, chimeric: human IgG1 heavy chain constant region, human kappa light chain constant region) VH: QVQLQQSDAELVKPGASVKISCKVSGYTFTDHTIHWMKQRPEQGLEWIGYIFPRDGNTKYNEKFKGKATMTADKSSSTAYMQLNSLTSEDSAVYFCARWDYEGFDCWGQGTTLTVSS VL: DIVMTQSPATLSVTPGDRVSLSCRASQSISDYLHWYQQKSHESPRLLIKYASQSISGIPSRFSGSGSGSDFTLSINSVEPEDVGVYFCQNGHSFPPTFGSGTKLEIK
Result :: 9.17
